These entries and their values trace back to patent US4340672A.

Assay: Solubility in water
Type: physicochemical
Settings: read-out: concentration that can dissolve in water
attribute measured: solubility (µg/mL)
Write the number in µg/mL without appending the unit.

Asked: Given the molecule COC(=O)Cc1cccs1 , what is its reported solubility?
Given back: 10000

====

Provide the reported product detected and determined, A. globiformis M-345-2 of each item.
Tested on: A. globiformis M-345-2 acylase
Assay: Selectivity of the acylases
Details: ester (I) 45 mg, amine (II) 9 mg, 37° C., 3 hours 45 minutes; TLC and paper-disc assay with Bacillus subtilis PCI-219
Format: numeric value only, no unit, no commentary.

Asked: Given the compound O=C(Cc1ccccc1)OCCOCCOCCOCCO [drawing 18] , what is its reported product detected and determined, A. globiformis M-345-2?
Given back: 10.1

Asked: Given the compound COCCOCCOC(=O)C(N)c1ccccc1 (stereo not shown) , what is its reported product detected and determined, A. globiformis M-345-2?
Given back: 10.6

Asked: Given the compound O=C(Cc1ccccc1)OCCOCCOCCOCCO [drawing 20] , what is its reported product detected and determined, A. globiformis M-345-2?
Given back: 18.0

Asked: Given the compound COCCOCCOCCOCCOCCOC(=O)Cn1cnnn1 , what is its reported product detected and determined, A. globiformis M-345-2?
Given back: 43.7
